Consider the following IC50 data for Steroid 17-alpha-hydroxylase/17,20 lyase (Homo sapiens, UniProt P05093), collected from several reports.
Assay metric: IC50 (nM)

Worked examples, 8 molecules total:
Given the entry Cc1ccncc1-c1ccnn2c(-c3ccc(F)cc3)cnc12 , what IC50 was observed with Steroid 17-alpha-hydroxylase/17,20 lyase (Homo sapiens, UniProt P05093)?
56

Recorded IC50 for COc1cc(NS(=O)(=O)Cc2ccc(Cl)cc2)ccc1-c1cncnc1C with Steroid 17-alpha-hydroxylase/17,20 lyase (Homo sapiens, UniProt P05093), please?
3.4

So what IC50 did OC1(c2ccncc2-c2ccnc3c2cnn3-c2ccc(F)cc2)COC1 get with Steroid 17-alpha-hydroxylase/17,20 lyase (Homo sapiens, UniProt P05093)?
5.9

Find IC50 (Steroid 17-alpha-hydroxylase/17,20 lyase (Homo sapiens, UniProt P05093)) for the entry Cc1ncncc1-c1ccnc2c1cnn2-c1ccc(F)cc1F
15

# returns recorded IC50 (system: Steroid 17-alpha-hydroxylase/17,20 lyase (Homo sapiens, UniProt P05093)) for Cc1ncncc1-c1ccnc2c1cnn2-c1ccc(F)cc1
186

Missing value: IC50, Steroid 17-alpha-hydroxylase/17,20 lyase (Homo sapiens, UniProt P05093), entry Cc1cccc(-c2cnc3c(-c4cnccc4C)ccnn23)c1 . Fill in?
120

// lookup IC50 | system=Steroid 17-alpha-hydroxylase/17,20 lyase (Homo sapiens, UniProt P05093) | key= COc1cc(NS(=O)(=O)c2cccc3cccnc23)ccc1-c1cncnc1C
118

Hello, I am looking for reported IC50 with Steroid 17-alpha-hydroxylase/17,20 lyase (Homo sapiens, UniProt P05093) for Cc1cc(NS(C)(=O)=O)ccc1-c1cnccc1Cl . Could you help?
52

1 = Nc1ncncc1-c1ccnc2c1cnn2-c1ccc(F)c(F)c1F
2 = Cc1ccncc1-c1cccc2c1ncn2-c1ccncc1
Between 1 and 2 , whose recorded IC50 is greater? Bench note: the answer is the label of the chosen record.
2
(2: 405 nM, 1: 105 nM)

I = COc1cc(NS(C)(=O)=O)ccc1-c1cncnc1C
II = Cc1ccncc1-c1cccc2c1ncn2CC#N
III = Cc1ccncc1-c1cccc2c1ncn2-c1ccccn1
IV = NS(=O)(=O)c1cccc(-n2ncc3c(-c4cncc5ncccc45)ccnc32)c1
// ranking: key=IC50, reverse=True Write the labels out in the order the request specifies.
II, IV, I, III
(II: 330 nM, IV: 206 nM, I: 112 nM, III: 5.8 nM)
